Biological target: Human NaV1.8 (Homo sapiens, UniProt Q9Y5Y9)
Sequence (Q9Y5Y9 whole entry): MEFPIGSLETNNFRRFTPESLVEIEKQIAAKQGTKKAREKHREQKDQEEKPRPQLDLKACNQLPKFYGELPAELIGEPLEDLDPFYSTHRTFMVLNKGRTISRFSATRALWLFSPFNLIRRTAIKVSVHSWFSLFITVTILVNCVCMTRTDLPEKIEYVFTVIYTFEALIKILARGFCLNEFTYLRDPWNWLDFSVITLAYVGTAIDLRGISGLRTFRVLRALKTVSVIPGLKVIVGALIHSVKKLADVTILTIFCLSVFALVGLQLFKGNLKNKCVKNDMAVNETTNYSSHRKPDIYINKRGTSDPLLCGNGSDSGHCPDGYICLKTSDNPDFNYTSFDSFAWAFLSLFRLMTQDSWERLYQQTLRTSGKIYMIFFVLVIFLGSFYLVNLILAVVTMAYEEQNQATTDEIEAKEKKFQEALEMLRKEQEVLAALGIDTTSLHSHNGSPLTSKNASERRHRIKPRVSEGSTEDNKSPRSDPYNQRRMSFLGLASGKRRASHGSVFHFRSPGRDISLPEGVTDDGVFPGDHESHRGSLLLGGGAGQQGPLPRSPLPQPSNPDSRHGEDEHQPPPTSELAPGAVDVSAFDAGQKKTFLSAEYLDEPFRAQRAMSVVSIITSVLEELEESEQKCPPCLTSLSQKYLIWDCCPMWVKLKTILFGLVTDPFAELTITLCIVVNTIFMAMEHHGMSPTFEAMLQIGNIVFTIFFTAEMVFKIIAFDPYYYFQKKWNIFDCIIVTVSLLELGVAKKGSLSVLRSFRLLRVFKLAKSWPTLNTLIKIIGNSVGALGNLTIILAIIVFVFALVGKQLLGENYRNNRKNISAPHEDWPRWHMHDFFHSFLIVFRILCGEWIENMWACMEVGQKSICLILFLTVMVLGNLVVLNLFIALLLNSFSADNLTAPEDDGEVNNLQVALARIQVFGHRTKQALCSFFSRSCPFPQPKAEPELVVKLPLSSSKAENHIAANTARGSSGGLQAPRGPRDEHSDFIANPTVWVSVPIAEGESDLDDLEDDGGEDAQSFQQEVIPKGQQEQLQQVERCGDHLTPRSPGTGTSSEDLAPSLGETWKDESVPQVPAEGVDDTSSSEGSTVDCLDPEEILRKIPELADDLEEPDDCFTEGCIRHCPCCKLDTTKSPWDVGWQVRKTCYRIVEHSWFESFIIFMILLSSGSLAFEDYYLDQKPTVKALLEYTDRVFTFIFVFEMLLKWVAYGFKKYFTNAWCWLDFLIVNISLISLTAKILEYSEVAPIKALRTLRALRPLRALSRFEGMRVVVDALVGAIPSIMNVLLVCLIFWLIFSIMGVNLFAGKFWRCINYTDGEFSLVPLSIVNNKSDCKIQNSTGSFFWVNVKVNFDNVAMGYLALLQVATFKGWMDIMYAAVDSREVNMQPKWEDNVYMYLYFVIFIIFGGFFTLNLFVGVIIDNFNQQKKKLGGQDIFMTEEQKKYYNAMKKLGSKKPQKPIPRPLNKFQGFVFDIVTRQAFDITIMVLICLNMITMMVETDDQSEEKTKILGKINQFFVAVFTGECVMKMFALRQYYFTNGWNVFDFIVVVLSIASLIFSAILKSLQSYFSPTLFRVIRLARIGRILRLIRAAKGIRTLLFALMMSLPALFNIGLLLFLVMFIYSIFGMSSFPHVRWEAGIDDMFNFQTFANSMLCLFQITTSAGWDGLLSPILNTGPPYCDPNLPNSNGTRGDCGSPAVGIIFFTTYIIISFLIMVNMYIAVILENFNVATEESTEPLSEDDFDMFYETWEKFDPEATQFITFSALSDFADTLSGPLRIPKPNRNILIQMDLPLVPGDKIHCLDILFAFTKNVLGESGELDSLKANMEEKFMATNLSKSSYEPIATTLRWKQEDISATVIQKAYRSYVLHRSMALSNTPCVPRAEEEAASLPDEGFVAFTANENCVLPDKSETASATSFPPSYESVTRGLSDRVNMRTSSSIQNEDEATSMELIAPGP
Assay: VIPR assay for NaV1.8 compounds (FRET membrane potential)
Conditions: Human NaV1.8 HEK293 expressing cell line, channels held open with deltamethrin
Assignment: determine reported pIC50 for the given molecules.
Give bare numbers, as −log10 of the molar value.

Worked set:
Qu. Quick one: pIC50 of CC/N=C(\NCC)c1ccc(-c2cc(Cl)cc(Cl)c2Cl)c(N)n1 ?
Ans. 5.53

Qu. Quick one: pIC50 of CN/C(=N\C#N)c1ccc(-c2cc(Cl)cc(Cl)c2Cl)c(N)n1 ?
Ans. 5.79

Qu. Quick one: pIC50 of C/N=C(\NCC(F)(F)F)c1ccc(-c2cc(Cl)cc(Cl)c2Cl)c(N)n1 ?
Ans. 5.88

Report pIC50 for every entry below.
1. C/N=C(\NC)c1ccc(-c2cc(Cl)cc(Cl)c2Cl)c(N)n1
2. CNC(=N)c1ccc(-c2cc(Cl)cc(Cl)c2Cl)c(N)n1
3. C/N=C(/c1ccc(-c2cc(Cl)cc(Cl)c2Cl)c(N)n1)N1CCOCC1
4. CNC(=S)c1ccc(-c2cc(Cl)cc(Cl)c2Cl)c(N)n1

Ans.
1: 5.74; 2: 5.62; 3: 5.34; 4: 5.53

Origin of the recorded values: patent US20100240652A1
